# TESTED_TARGET: UniProt P41145
# Sequence (P41145 whole entry, looked up): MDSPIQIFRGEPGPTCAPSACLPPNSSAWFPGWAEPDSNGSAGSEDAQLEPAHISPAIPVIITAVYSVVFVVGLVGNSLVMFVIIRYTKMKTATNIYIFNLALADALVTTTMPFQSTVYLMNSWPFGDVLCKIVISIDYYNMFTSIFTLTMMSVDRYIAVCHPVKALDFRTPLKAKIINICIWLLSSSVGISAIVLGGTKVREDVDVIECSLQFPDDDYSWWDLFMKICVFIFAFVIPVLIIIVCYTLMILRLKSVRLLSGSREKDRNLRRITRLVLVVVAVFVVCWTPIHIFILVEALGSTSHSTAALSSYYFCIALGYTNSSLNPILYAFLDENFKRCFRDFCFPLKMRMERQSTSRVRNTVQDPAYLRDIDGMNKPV
MEASURED_PARAMETER: IC50

API: value(readout= IC50, system= UniProt P41145, query= "CCc1ccc(S(=O)(=O)NCc2ccc(C(=O)NCCN(Cc3ccccc3)C(C)C)cc2)cc1" ) 1.12 µM
